- experimental_target: Thyrotropin receptor (Homo sapiens) (UniProt P16473)
- Sequence (P16473 whole entry, looked up): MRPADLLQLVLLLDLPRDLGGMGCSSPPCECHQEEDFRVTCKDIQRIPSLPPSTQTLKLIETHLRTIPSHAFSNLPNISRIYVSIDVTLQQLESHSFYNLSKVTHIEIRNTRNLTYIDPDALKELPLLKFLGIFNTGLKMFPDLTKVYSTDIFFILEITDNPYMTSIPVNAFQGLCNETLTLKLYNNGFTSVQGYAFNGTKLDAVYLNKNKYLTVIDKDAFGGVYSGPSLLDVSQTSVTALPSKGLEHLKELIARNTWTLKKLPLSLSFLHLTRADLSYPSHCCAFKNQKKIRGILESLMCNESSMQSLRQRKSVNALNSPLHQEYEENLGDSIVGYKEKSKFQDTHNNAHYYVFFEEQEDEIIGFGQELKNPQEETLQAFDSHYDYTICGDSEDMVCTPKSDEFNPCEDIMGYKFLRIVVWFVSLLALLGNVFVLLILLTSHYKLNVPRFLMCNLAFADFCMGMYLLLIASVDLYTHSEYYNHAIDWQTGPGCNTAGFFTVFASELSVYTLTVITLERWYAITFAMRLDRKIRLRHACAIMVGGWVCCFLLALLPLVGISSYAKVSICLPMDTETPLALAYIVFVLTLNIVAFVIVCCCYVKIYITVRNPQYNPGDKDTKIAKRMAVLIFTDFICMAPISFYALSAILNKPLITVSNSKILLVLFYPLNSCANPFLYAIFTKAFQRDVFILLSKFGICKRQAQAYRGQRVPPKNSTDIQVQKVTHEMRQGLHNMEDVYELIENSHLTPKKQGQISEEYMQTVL
- procedure_text: qHTS assay to identify small molecule antagonists of the thyroid stimulating hormone receptor (TSHR) signaling pathway (AID 1259385); note: nearly all actives have a fitted effect of over 20% in size
- condition_notes: TSHR-HEK293 cAMP HTRF, TSH-stimulated antagonist mode; series mostly up to 92.4 µM
Records with an inconclusive call do not appear. Activity calls are given as the source filed them. Calls come from the whole dose curve.
Choose the fitting class; nothing outside label 1 (active), label 0 (inactive) is accepted.

Q: Which outcome was assigned to N#CCNCC#N in this test?
Result: label 0

Q: Which outcome was assigned to O=C(N[C@H]1CN2CCC1CC2)c1cc2ccoc2cn1 in this test?
Result: label 0

Q: Which outcome was assigned to N#CC(O)c1ccccc1 (centres undefined) in this test?
Result: label 0

Q: Which outcome was assigned to CCNc1nc(NC(C)C)nc(OC)n1 in this test?
Result: label 0

Q: Which outcome was assigned to Fc1ccc(C2(Cn3cncn3)OC2c2ccccc2Cl)cc1 (centres undefined) in this test?
Result: label 0

Q: Which outcome was assigned to NC(=O)c1cc([N+](=O)[O-])cc([N+](=O)[O-])c1 in this test?
Result: label 0

Q: Which outcome was assigned to CC(C1CC1)C(O)(Cn1cncn1)c1ccc(Cl)cc1 (centres undefined) in this test?
Result: label 0

Q: Which outcome was assigned to COP(=S)(OC)Oc1c(Cl)cc(C)cc1Cl in this test?
Result: label 1

Q: Which outcome was assigned to BrCCCCCCBr in this test?
Result: label 0

Q: Which outcome was assigned to COC(=O)c1ccccc1S(=O)(=O)NC(=O)Nc1nc(C)cc(C)n1 in this test?
Result: label 0

Q: Which outcome was assigned to O=NN1CCCCC1 in this test?
Result: label 0

Q: Which outcome was assigned to C(CCOCC1CO1)COCC1CO1 (centres undefined) in this test?
Result: label 0

Q: Which outcome was assigned to O=C(CCN1CC1)OCC(CO)(COC(=O)CCN1CC1)COC(=O)CCN1CC1 in this test?
Result: label 0

Q: Which outcome was assigned to CC1(C)COP(Oc2ccccc2)OC1 in this test?
Result: label 0
